# systemName: human mAChR M4 (Homo sapiens, UniProt P08173)
# Construct: expressed in transfected cells
# Sequence (P08173 whole entry): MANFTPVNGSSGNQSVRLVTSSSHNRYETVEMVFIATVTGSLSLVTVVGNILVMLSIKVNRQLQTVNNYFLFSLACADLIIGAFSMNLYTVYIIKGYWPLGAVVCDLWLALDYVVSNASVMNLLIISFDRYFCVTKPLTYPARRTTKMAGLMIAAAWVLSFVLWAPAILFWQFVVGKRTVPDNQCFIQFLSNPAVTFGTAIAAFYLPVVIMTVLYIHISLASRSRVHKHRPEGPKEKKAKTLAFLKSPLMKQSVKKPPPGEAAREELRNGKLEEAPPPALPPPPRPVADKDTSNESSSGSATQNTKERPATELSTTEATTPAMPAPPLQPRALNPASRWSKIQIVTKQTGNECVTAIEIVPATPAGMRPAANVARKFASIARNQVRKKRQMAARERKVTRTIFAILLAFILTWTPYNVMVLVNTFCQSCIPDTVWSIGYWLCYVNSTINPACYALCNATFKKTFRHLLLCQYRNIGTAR
# testProtocol: mAChR M4 cell-based functional assay (calcium mobilization, CHO-K1 hM4-Gqi5 cells)
# measurementParameters: positive allosteric modulator activity, increase in the EC20 acetylcholine response, CHO-K1 hM4-Gqi5 cells; read-out: Human M4 EC50
pEC50: −log10 of the molar value.
outcomeMeasure: pEC50

[1] Cc1cc(C(=O)N2CC(F)C2)nnc1N1CCc2ncc(Nc3ccnn3C)cc2C1 [Example 559]
[2] Cc1cc(C#N)cnc1N1CCc2ncc(-n3ccnc3)cc2C1 [Example 343]
Data request: Compare 1 and 2 by numeric pEC50 and name the larger one. Answer with the label corresponding to your selection.
Data returned: 1
(1: 7.19, 2: 6.65)

[I] CCOc1nc(N2CCc3ncc(C(F)(F)F)cc3C2)c(C)cc1C#N [Example 373]
[II] Cc1cc(C(=O)N2CC(C)(C#N)C2)nnc1N1CCc2ncc(N3CCCn4nccc43)cc2C1 [Example 519]
Data request: Between I and II , which one shows the smaller pEC50 number? Field: selected label. Fill in the label of the entry you choose.
Data returned: I
(I: 5.76, II: 7.85)

[A] Cc1c(C#N)nnc(N2CCc3ncc(C(F)F)cc3C2)c1C [Example 308]
[B] Cc1c(C#N)nnc(N2CCc3ncc(Nc4ccccc4Cl)cc3C2)c1C [compound 39]
[C] Cc1c(C#N)nnc(N2CCc3ncc(-c4cccnc4)cc3C2)c1C [compound 47]
[D] Cc1cc(C(=O)NCc2ccc(Cl)nc2Cl)cnc1N1CCc2ncc(-c3cn(C)nc3C)cc2C1 [Example 462]
Data request: Task for the reader: rank each entry by its pEC50, from the minimum upward. Write out the labels following the order that was asked for.
Data returned: D, A, B, C
(D: 6.15, A: 6.39, B: 6.62, C: 6.87)
